- System: TC-252 Ewing's sarcoma cells
- assayOverview: Cell viability assay (7AAD, 48 hours), TC-252
- Assay type: cell-based
- settings: 48 hours exposure; read-out: Cancer cell lines IC50 (μM) TC-252
Where a SMILES comes first, the peptide text is derived from it. The star is where a group is joined. Cbz = O=C(OCc1ccccc1)*
Provide the recorded IC50 for the entries that follow.
Answers are plain numbers, in µM.

Previously resolved entries follow.
C#CCOc1ccc(C[C@@H](C=O)NC(=O)[C@H](CC(C)C)NC(=O)[C@H](Cc2ccc(N=[N+]=[N-])cc2)NC(=O)OCc2ccccc2)cc1 : 0.64
C#CCOc1ccc(C[C@@H](C=O)NC(=O)[C@@H](NC(=O)[C@H](CCCCN=[N+]=[N-])NC(=O)OCc2ccccc2)[C@@H](C)CC)cc1 : 0.42
C#CCOc1ccc(C[C@@H](C=O)NC(=O)[C@H](CC(C)C)NC(=O)[C@H](CCCN=[N+]=[N-])NC(=O)OCc2ccccc2)cc1 : 1.2
CC(C)C[C@@H](C=O)NC(=O)[C@H](CC(C)C)NC(=O)[C@H](CC(C)C)NC(=O)OCc1ccccc1 [MG132, reference compound] (Cbz-Leu-Leu-Leu-aldehyde) : 0.49
CC(C)CC1NC(=O)C(NC(=O)OCc2ccccc2)CCCCn2cc(nn2)COc2ccc(cc2)CC(C=O)NC1=O (stereo not drawn) : 39.4

# next compound below
Given the compound C#CCOc1ccc(C[C@@H](C=O)NC(=O)[C@H](CC(C)C)NC(=O)[C@H](CN=[N+]=[N-])NC(=O)OCc2ccccc2)cc1 , what is its reported IC50?
5
